# TEST DESCRIPTION: MTT cytotoxicity assay
# CONDITION SUMMARY: African green monkey
ENDPOINT NAME: CC50
Please make sure the unit comes right after the number.

Exercise: Could you tell me which CC50 is on file for `CCCCC[C@H](O)CC(=O)CCc1ccc(O)c(OC)c1` ?
Solution: 101 µg/mL

Origin of the recorded values: paper PMC9332707
